- target: Interleukin-8 receptors, CXCR1/CXCR2 (Homo sapiens, UniProt P25025+P25024)
- Sequence (P25025 whole entry): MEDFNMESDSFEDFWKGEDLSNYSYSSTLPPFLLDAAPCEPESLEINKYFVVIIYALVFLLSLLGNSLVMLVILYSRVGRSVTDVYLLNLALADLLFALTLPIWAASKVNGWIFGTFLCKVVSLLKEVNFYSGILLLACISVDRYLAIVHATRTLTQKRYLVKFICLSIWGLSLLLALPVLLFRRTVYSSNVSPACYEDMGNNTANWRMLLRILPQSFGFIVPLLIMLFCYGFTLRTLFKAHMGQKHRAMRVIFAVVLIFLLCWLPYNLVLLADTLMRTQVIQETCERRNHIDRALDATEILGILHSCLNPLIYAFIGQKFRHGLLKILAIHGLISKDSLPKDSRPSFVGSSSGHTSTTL
- Sequence (P25024 whole entry): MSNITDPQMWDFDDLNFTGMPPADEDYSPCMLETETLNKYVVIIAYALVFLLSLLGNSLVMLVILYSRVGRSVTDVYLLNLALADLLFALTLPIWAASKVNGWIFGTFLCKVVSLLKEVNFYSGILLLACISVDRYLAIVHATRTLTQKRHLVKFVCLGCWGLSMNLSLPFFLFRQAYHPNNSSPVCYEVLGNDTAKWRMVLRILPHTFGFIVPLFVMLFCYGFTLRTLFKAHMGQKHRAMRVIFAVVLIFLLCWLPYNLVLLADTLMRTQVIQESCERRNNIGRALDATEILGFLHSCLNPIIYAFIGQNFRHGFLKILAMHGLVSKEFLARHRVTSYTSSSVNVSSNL
- assayProtocol: Inhibitory activity against interleukin-8 receptor using [125I]IL8
- Assay type: protein assay
Classes are defined on Ki with ranges bin A (below 40 µM), bin B (40 µM to below 200 µM), bin C (200 µM or more)

Task: The entry to classify is "Ac-FDDLNFTGMPPADEDYSP-NH2" ; which class holds it?
Result: bin B

Task: Assign a category based on measured Ki for "Ac-MWDFDDLNFTGMPPADADYSP-NH2" and give only the class name.
Result: bin A

Task: Into which bin does this substance go? "Ac-WDFDDLNFTGMPPADEDYSP-NH2"
Result: bin A

Task: Class label required: "Ac-MWDFDDLNFTGMPPAAEDYSP-NH2"
Result: bin B

Task: In plain terms, what class is "Ac-MWDFDDLAFTGMPPADEDYSP-NH2" ?
Result: bin B

Task: State the class of the substance shown: "Ac-MWDFDDLNFTGMPPADEDASP-NH2"
Result: bin C

Task: Classify this substance: "Ac-MWDFDDLNFTGAPPADEDYSP-NH2"
Result: bin A

Task: In plain terms, what class is "Ac-MWDFADLNFTGMPPADEDYSP-NH2" ?
Result: bin A

Task: Entry "Ac-DFDDLNFTGMPPADEDYSP-NH2" belongs to which category?
Result: bin B

Task: Which class is correct for the following substance? "Ac-DLNFTGMPPADEDYSP-NH2"
Result: bin C

Task: State the band of "Ac-NFTGMPPADEDYSP-NH2"
Result: bin C

Task: State the class of the substance shown: "Ac-DDLNFTGMPPADEDYSP-NH2"
Result: bin B

Task: Please indicate the class for "Ac-MWDFDDLNATGMPPADEDYSP-NH2" based on its Ki.
Result: bin B

Task: Kindly state the category for this substance: "Ac-MWDFDDLNFTGMPPADEDYSA-NH2"
Result: bin B

The reported measurements were obtained from ChEMBL document CHEMBL1150989.
